testSystem: human P2X4 receptors (Homo sapiens)
Sequence (Q99571 whole entry): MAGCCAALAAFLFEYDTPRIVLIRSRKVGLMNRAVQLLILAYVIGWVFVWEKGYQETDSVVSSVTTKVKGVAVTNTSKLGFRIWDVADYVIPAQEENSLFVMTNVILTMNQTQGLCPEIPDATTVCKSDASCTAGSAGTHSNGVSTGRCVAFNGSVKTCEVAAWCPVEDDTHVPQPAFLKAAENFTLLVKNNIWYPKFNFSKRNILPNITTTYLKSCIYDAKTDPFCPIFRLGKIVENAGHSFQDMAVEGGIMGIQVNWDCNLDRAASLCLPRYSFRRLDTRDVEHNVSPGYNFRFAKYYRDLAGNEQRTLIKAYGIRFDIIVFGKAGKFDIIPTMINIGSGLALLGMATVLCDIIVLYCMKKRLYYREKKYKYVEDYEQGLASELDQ
assayName: P2X4 receptor antagonism, intracellular calcium influx assay (Fura-2 AM, ATP-induced)
Type: cell-based
runConditions: Table 20; same manner as in Example 19; 1321N1 cells stably expressing human P2X4 receptors; compound added 15 min before ATP; read-out: Inhibition activities (IC50 μM)
Where a name gives a salt, the structure may show the parent alone.
parameter: IC50 (µM)

>>> print(df.to_string())
                                   compound  parameter  unitabbrev  experimentalresult
0  O=C1CC(=O)N(c2ccc(O)cc2)c2ccc3c(c2N1)CCCC3 [Example 14]       IC50          µM                 3.8
1  COc1ccc(N2C(=O)CC(=O)Nc3c2ccc2c3CCCC2)cc1 [Example 13]       IC50          µM                 6.9
2  Nc1ccc(N2C(=O)CC(=O)Nc3c2ccc2c3CCCC2)cc1 [Example 10]       IC50          µM                 6.1
3  CNc1ccc(N2C(=O)CC(=O)Nc3c2ccc2c3CCCC2)cc1 [Example 11, hydrochloride]       IC50          µM                 3.3
4  Nc1cccc(N2C(=O)CC(=O)Nc3c2ccc2c3CCCC2)c1 [Example 8, hydrochloride]       IC50          µM                   4

Where do these numbers come from? They come from patent US8962613B2.
